# Target or test system: CYP3A4 (Homo sapiens)
# Sequence (P08684 whole entry): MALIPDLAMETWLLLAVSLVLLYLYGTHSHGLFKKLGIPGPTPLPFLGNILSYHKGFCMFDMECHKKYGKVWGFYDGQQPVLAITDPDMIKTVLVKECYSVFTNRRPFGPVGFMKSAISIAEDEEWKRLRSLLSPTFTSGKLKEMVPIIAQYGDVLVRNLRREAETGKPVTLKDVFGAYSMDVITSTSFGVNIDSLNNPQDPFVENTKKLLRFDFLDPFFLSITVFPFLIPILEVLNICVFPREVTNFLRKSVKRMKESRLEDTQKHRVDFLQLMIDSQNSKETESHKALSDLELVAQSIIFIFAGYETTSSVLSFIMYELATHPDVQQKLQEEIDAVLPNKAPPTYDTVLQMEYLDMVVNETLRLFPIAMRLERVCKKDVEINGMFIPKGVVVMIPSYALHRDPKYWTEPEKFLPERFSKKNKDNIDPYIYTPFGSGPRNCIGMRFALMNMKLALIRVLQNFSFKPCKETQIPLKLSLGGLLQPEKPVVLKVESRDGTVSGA
# Assay protocol: CYP inhibition
# Format: in vitro ADME
Endpoint: CYP inh. (3A4) (µM)
The response must be a number in µM with no trailing unit.

INSERT INTO results (compound, value) VALUES
  ('CN1C(=O)[C@H](CCCN)NC(=O)[C@H](CCCN)NCc2ccccc2Sc2ccccc2CNC(=O)[C@@H]1Cc1c[nH]c2ccccc12 [RO7036668]', 18);

From here, focus on the item given below.
What value of CYP inh. (3A4) has been reported for the following compound? CN1C(=O)[C@H](CCCCN)NC(=O)[C@H](CCCN)NCc2cccnc2Sc2c(Cl)ccc(Cl)c2CNC(=O)[C@@H]1Cc1c[nH]c2ccccc12 [RO7075573] 16

* * *

# Tested on: A. baumannii
# Assay protocol: microbe, parasite or virus in culture
# Condition context: Acinetobacter baumannii, ROB08705; CAMHB; MCPs read at 80% inhibition
// MIC lookup, one value per entry
# value in µg/mL; strip the unit string

INSERT INTO assay_data (molecule, value) VALUES
  ('CN1C(=O)[C@H](CCCCN)NC(=O)[C@H](CCCN)NCc2cccnc2Sc2cccc(-c3ccc(C(=O)O)cc3)c2CNC(=O)[C@@H]1Cc1c[nH]c2ccccc12 [zosurabalpin]', 0.25);

Let us move to another entry and its MIC.
Returns the measured MIC for the input molecule. Input: CN(C)c1cc(NC(=O)CNC(C)(C)C)c(O)c2c1C[C@H]1C[C@H]3[C@H](N(C)C)C(O)=C(C(N)=O)C(=O)[C@@]3(O)C(O)=C1C2=O [tigecycline, reference compound] 1

* * *

Recorded CYP inh. (2C9) values for a group of molecules are listed next.
# Target or test system: CYP2C9 (Homo sapiens)
# Sequence (P11712 whole entry): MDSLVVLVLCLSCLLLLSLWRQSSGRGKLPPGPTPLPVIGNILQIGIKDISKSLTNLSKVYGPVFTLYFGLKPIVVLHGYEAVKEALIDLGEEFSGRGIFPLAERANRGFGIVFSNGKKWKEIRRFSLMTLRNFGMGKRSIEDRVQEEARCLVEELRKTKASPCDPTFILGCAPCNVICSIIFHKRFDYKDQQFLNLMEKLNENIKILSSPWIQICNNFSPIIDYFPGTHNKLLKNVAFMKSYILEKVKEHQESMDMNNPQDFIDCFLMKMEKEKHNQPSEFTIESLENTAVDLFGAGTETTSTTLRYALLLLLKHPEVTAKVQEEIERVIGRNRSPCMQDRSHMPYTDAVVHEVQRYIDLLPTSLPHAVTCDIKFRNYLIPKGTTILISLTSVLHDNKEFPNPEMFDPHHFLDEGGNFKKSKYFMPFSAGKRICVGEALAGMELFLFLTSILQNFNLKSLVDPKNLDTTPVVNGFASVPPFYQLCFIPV
# Assay protocol: CYP inhibition
# Assay type: in vitro ADME

Guide cases for CYP inh. (2C9), answers given:
INSERT INTO results (molecule, target_or_test_system, value) VALUES
  ('CN1C(=O)[C@H](CCCN)NC(=O)[C@H](CCCN)NCc2ccccc2Sc2ccccc2CNC(=O)[C@@H]1Cc1c[nH]c2ccccc12 [RO7036668]', 'CYP2C9 (Homo sapiens)', '> 50 µM'),
  ('CN1C(=O)[C@H](CCCCN)NC(=O)[C@H](CCCN)NCc2cccnc2Sc2c(Cl)ccc(Cl)c2CNC(=O)[C@@H]1Cc1c[nH]c2ccccc12 [RO7075573]', 'CYP2C9 (Homo sapiens)', '> 50 µM'),
  ('CN1C(=O)[C@H](CCCCN)NC(=O)[C@H](CCCN)NCc2cccnc2Sc2cccc(-c3ccc(C(=O)O)cc3)c2CNC(=O)[C@@H]1Cc1c[nH]c2ccccc12 [zosurabalpin]', 'CYP2C9 (Homo sapiens)', '>50 (3A4) >50 (2C9) >50 (2D6) μM');

May I ask what CYP inh. (2C9) has been recorded for CN1C(=O)[C@H](CCCCN)NC(=O)[C@H](CCCN)NCc2cccnc2Sc2c(Cl)ccc(-c3ccc(C(=O)O)cc3)c2CNC(=O)[C@@H]1Cc1c[nH]c2ccccc12 [RO7202110] ? >50 (3A4) >50 (2C9) >50 (2D6) μM

* * *

Item-by-item account of CYP inh. (2D6)
# Target or test system: CYP2D6 (Homo sapiens, UniProt P10635)
# Sequence (P10635 whole entry): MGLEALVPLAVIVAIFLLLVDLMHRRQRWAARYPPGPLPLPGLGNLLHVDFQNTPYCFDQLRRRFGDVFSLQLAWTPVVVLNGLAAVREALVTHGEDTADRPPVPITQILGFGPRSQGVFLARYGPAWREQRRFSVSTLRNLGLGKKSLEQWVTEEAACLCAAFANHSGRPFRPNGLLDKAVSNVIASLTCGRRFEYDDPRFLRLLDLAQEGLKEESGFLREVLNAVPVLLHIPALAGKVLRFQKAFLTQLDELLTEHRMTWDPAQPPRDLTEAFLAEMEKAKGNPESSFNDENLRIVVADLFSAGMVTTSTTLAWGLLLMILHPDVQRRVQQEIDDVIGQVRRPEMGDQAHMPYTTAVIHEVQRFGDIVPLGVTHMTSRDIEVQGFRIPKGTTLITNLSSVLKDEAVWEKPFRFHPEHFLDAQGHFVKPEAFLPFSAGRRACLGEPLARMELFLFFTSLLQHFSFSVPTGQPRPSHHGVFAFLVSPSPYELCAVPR
# Assay protocol: CYP inhibition
# Type: in vitro ADME

The cases that follow already have their CYP inh. (2D6) on record.
INSERT INTO assay_data (molecule, target_or_test_system, value) VALUES
  ('CN1C(=O)[C@H](CCCCN)NC(=O)[C@H](CCCN)NCc2cccnc2Sc2cccc(-c3ccc(C(=O)O)cc3)c2CNC(=O)[C@@H]1Cc1c[nH]c2ccccc12', 'CYP2D6 (Homo sapiens, UniProt P10635)', '>50 (3A4) >50 (2C9) >50 (2D6) μM'),
  ('CN1C(=O)[C@H](CCCCN)NC(=O)[C@H](CCCN)NCc2cccnc2Sc2c(Cl)ccc(Cl)c2CNC(=O)[C@@H]1Cc1c[nH]c2ccccc12', 'CYP2D6 (Homo sapiens, UniProt P10635)', '> 50 µM'),
  ('CN1C(=O)[C@H](CCCCN)NC(=O)[C@H](CCCN)NCc2cccnc2Sc2c(Cl)ccc(-c3ccc(C(=O)O)cc3)c2CNC(=O)[C@@H]1Cc1c[nH]c2ccccc12', 'CYP2D6 (Homo sapiens, UniProt P10635)', '>50 (3A4) >50 (2C9) >50 (2D6) μM');

Consider the record given below.
Which value of CYP inh. (2D6) has been reported for CN1C(=O)[C@H](CCCN)NC(=O)[C@H](CCCN)NCc2ccccc2Sc2ccccc2CNC(=O)[C@@H]1Cc1c[nH]c2ccccc12 in the records? > 50 µM

* * *

# Test system: A. baumannii
# Assay protocol: microbe, parasite or virus in culture
# Condition context: Acinetobacter baumannii, ATCC17978, ATCC 17978; CAMHB; MCPs read at 80% inhibition
Below is a list of entries, each paired with its recorded MIC value.
The reply should be a number in µg/mL, with the unit left off.

INSERT INTO results (compound, target_or_test_system, endpoint, value) VALUES
  ('CN(C)c1cc(NC(=O)CNC(C)(C)C)c(O)c2c1C[C@H]1C[C@H]3[C@H](N(C)C)C(O)=C(C(N)=O)C(=O)[C@@]3(O)C(O)=C1C2=O [tigecycline, reference compound]', 'A. baumannii', 'MIC', 0.5),
  ('CN1C(=O)[C@H](CCCCN)NC(=O)[C@H](CCCN)NCc2cccnc2Sc2c(Cl)ccc(Cl)c2CNC(=O)[C@@H]1Cc1c[nH]c2ccccc12', 'A. baumannii', 'MIC', 0.12);

From here, focus on the item given below.
May I ask what MIC has been recorded for C[C@@H](O)[C@H]1C(=O)N2C(C(=O)O)=C(S[C@@H]3CN[C@H](C(=O)N(C)C)C3)[C@H](C)[C@H]12 [meropenem, reference compound] ? 0.25
